Entries below carry reported log10 IC50 on PARN (Homo sapiens).
Sequence (O95453 whole entry): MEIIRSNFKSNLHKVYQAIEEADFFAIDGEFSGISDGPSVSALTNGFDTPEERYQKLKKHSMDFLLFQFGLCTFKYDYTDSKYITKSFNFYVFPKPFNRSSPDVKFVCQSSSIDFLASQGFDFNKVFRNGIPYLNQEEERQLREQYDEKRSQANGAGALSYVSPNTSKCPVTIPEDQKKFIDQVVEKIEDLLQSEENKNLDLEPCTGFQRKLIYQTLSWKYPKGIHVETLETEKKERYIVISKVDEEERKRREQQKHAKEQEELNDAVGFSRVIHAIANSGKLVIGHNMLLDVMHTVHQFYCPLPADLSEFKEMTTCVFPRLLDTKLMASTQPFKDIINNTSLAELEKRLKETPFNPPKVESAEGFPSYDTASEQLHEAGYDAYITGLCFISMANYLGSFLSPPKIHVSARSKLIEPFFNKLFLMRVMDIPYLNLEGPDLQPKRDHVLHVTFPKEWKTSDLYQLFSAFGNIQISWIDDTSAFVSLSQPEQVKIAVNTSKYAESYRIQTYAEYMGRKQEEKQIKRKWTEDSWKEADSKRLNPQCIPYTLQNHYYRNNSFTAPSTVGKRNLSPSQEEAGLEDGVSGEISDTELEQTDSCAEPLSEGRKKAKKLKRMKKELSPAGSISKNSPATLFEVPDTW
Value kind: log10 IC50 (log10 of the value in µM)

Compound: O=c1[nH]c2ncn(Cc3cccnc3)c2c(=O)n1O [Compound 5d]
log10 IC50: 2.10

Compound: O=c1[nH]c2ncn(Cc3ccncc3)c2c(=O)n1O [Compound 5e]
log10 IC50: 2.39

Compound: CN(C)CCCn1c(=O)n(O)c(=O)c2c1ncn2CCc1ccccc1 [Compound 8j]
log10 IC50: 1.38

Compound: O=c1[nH]c2ncn(Cc3ccccc3)c2c(=O)n1O [Compound 5a]
log10 IC50: 1.92

Compound: O=c1[nH]c2ncn(Cc3ccccn3)c2c(=O)n1O [Compound 5c]
log10 IC50: 2.08

* * *

# Experimental target: Caf1 (Homo sapiens, UniProt Q9UIV1)
# Sequence (Q9UIV1 whole entry): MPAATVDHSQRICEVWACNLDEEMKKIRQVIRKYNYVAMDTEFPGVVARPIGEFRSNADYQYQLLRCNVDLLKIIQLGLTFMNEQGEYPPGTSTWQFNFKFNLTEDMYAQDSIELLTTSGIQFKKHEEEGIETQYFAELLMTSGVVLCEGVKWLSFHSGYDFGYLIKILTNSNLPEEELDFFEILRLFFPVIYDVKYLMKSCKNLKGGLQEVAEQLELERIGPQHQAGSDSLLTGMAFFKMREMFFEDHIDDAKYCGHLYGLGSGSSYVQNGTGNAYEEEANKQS
# Assay remarks: Fluorescence-based biochemical assay of Caf1 ribonuclease activity
pIC50: −log10 of the molar value.
Value kind: pIC50

Molecule: O=c1[nH]c2ncn(Cc3ccccc3)c2c(=O)n1O [Compound 5a]
Value kind: pIC50
Assay result: 4.64
